These measurements were taken from patent US20250144067A1.

System: NCI-H292 lung cancer cells
Test: FDA drug screening, complete media vs cholesterol-free media without statin (TABLE 1)
Format: cell-based, human
Settings: NCI-H292 cells, complete media, FDA drug library screen
Where a name gives a salt, the structure may show the parent alone.
Complete vs 1: at or above is yes, below is no.

Worked set:
Ask | Does the compound CCCCOc1cc(C(=O)OCCN(CC)CC)ccc1N [Oxybuprocaine hydrochloride] have recorded Complete that is 1 or more?
Reply | no

Ask | Does the compound OC[C@@H](O)[C@@H](O)[C@H](O)[C@H](O)CO [D-Mannitol] have recorded Complete that is 1 or more?
Reply | yes

Ask | Does the compound Nc1nc(Cl)nc2c1ncn2[C@H]1C[C@H](O)[C@@H](CO)O1 [Cladribine] have recorded Complete that is 1 or more?
Reply | no

Now let's try a different one.
Ask | Does the compound O=C(Nc1cnn2ccc(N3CCC[C@@H]3c3cc(F)ccc3F)nc12)N1CC[C@H](O)C1 [Larotrectinib sulfate] have recorded Complete that is 1 or more?
Reply | yes

----------
Test system: NCI-H292 lung cancer cells
Assay: FDA drug screening, complete media vs cholesterol-free media with simvastatin (TABLE 2)
Assay type: cell-based, human
Conditions: NCI-H292 cells, FDA library drug in complete media
Where a name gives a salt, the structure may show the parent alone.
reported_metric: Complete Media

# count of solved cases: 10
So for "CC(=O)[C@H]1CC[C@H]2[C@@H]3CC=C4C[C@@H](O)CC[C@]4(C)[C@H]3CC[C@]12C" , the logged Complete Media turned out to be 0.9118

So for CC(C)(C(=O)O)c1ccc(C(O)CCCN2CCC(C(O)(c3ccccc3)c3ccccc3)CC2)cc1 (centres unmarked) [Fexofenadine (hydrochloride)] , the logged Complete Media turned out to be 1.104

So for "CCN(CC)CCNC(=O)c1c(C)[nH]c(/C=C2\C(=O)Nc3ccc(F)cc32)c1C" , the logged Complete Media turned out to be 1.121

So for CN(Cc1cc(Br)cc(Br)c1N)C1CCCCC1 [Bromhexine (hydrochloride)] , the logged Complete Media turned out to be 0.7932

So for O=C1CCC[C@@H]2[C@H]3CCC[N+]4([O-])CCC[C@@H](CN12)[C@@H]34 (some centres unmarked) , the logged Complete Media turned out to be 0.9014

So for O.O.O.O.O.O.O.O=C1N=C([O-])CN1/N=C/c1ccc(-c2ccc([N+](=O)[O-])cc2)o1.O=C1N=C([O-])CN1/N=C/c1ccc(-c2ccc([N+](=O)[O-])cc2)o1.[Na+].[Na+] [Dantrolene (sodium hemiheptahydrate)] , the logged Complete Media turned out to be 1.218

So for "C#C[C@]1(O)CC[C@H]2[C@@H]3CCc4cc(OC)ccc4[C@H]3CC[C@@]21C" , the logged Complete Media turned out to be 0.9303

So for "O=C1CCC[C@@H]2[C@H]3CCCN4CCC[C@H](CN12)[C@@H]34" , the logged Complete Media turned out to be 1.063

So for C[C@](N)(Cc1ccc(O)c(O)c1)C(=O)O.O [L-(−)-α-Methyldopa (hydrate)] , the logged Complete Media turned out to be 1.117

So for "CC(C)CCC[C@@H](C)[C@H]1CC[C@H]2[C@@H]3CC=C4C[C@@H](O)CC[C@]4(C)[C@H]3CC[C@]12C" , the logged Complete Media turned out to be 1.069

Please look at the following molecule next.
So for c1cc(CN2CCCNCCNCCCNCC2)ccc1CN1CCCNCCNCCCNCC1 [Plerixafor (octahydrochloride)] , the logged Complete Media turned out to be 0.812

----------
Reported Complete Media values follow for various molecules
System: NCI-H292 lung cancer cells
Test: FDA drug screening, complete media vs cholesterol-free media with simvastatin (TABLE 2)
Format: cell-based, human
Conditions: NCI-H292 cells, FDA drug library screen, complete media
Where a name gives a salt, the structure may show the parent alone.
Respond numerically, and do not add a unit to the figure.

Short answer on NCI-H292 lung cancer cells for NCc1ccccc1CC(=O)N[C@@H]1C(=O)N2C(C(=O)O)=C(CSc3nnnn3CC(=O)O)CS[C@H]12 [Ceforanide] , Complete Media: 1.331

***
Short answer on NCI-H292 lung cancer cells for "CN1CCC(=C2c3ccccc3CCc3sccc32)CC1" , Complete Media: 1.216

Short answer on NCI-H292 lung cancer cells for "O=C1NCCN1CCN1CCC(c2cn(-c3ccc(F)cc3)c3ccc(Cl)cc23)CC1" , Complete Media: 1.128

Short answer on NCI-H292 lung cancer cells for "Clc1ccc2c(N3CCN(CCCN4CCN(c5ccnc6cc(Cl)ccc56)CC4)CC3)ccnc2c1" , Complete Media: 1.047

Short answer on NCI-H292 lung cancer cells for COc1c(N2CCNC(C)C2)c(F)cc2c(=O)c(C(=O)O)cn(C3CC3)c12 (stereo not shown) [Gatifloxacin (hydrochloride)] , Complete Media: 0.7736

Short answer on NCI-H292 lung cancer cells for "CCCCOc1ccc(CC(=O)NO)cc1" , Complete Media: 1.594

Short answer on NCI-H292 lung cancer cells for "CC[C@H]1[C@@H](O)[C@@H]2[C@H](CC[C@]3(C)[C@@H]([C@H](C)CCC(=O)O)CC[C@@H]23)[C@@]2(C)CC[C@@H](O)C[C@@H]12" , Complete Media: 1.13

Short answer on NCI-H292 lung cancer cells for "Cn1c(Cn2ccc(C(F)(F)F)c(Oc3cc(Cl)cc(C#N)c3)c2=O)n[nH]c1=O" , Complete Media: 1.562

Short answer on NCI-H292 lung cancer cells for CCCN(CCC)CCc1cccc2c1CC(=O)N2 [Ropinirole (hydrochloride)] , Complete Media: 1.185

Short answer on NCI-H292 lung cancer cells for CN(C)c1cc(CNCC(C)(C)C)c(O)c2c1C[C@H]1C[C@H]3[C@H](N(C)C)C(O)=C(C(N)=O)C(=O)[C@@]3(O)C(O)=C1C2=O [Omadacycline (hydrochloride)] , Complete Media: 1.089

Short answer on NCI-H292 lung cancer cells for "CC[C@H]1OC(=O)[C@H](C)[C@@H](O[C@H]2C[C@@](C)(OC)[C@@H](O)[C@H](C)O2)[C@H](C)[C@@H](O[C@@H]2O[C@H](C)C[C@H](N(C)C)[C@H]2O)[C@](C)(O)C[C@@H](C)[C@@H]2N[C@@H](COCCOC)O[C@H]([C@H]2C)[C@]1(C)O" , Complete Media: 1.493

Short answer on NCI-H292 lung cancer cells for "CCCCCCCCCCC[C@@H](C[C@@H]1OC(=O)[C@H]1CCCCCC)OC(=O)[C@H](CC(C)C)NC=O" , Complete Media: 1.622

----------
System: NCI-H292 lung cancer cells
Test: FDA drug screening, complete media vs cholesterol-free media with simvastatin (TABLE 2)
Format: cell-based, human
Conditions: NCI-H292 cells, FDA drug library screen, cholesterol-free media with simvastatin 0.04 μM
reported_metric: Cholesterol-free media + simvastatin (0.04 μM)
Respond numerically, and do not add a unit to the figure.

# count of solved cases: 3
So for CCC(C)n1ncn(-c2ccc(N3CCN(c4ccc(OCC5COC(Cn6cncn6)(c6ccc(Cl)cc6Cl)O5)cc4)CC3)cc2)c1=O (stereo not drawn) , the logged Cholesterol-free media + simvastatin (0.04 μM) turned out to be 1.121

So for NCc1ccccc1CC(=O)N[C@@H]1C(=O)N2C(C(=O)O)=C(CSc3nnnn3CC(=O)O)CS[C@H]12 [Ceforanide] , the logged Cholesterol-free media + simvastatin (0.04 μM) turned out to be 1.034

So for "COc1ccc([C@@H]2CC(=O)c3c(O)cc(O[C@@H]4O[C@H](CO[C@@H]5O[C@@H](C)[C@H](O)[C@@H](O)[C@H]5O)[C@@H](O)[C@H](O)[C@H]4O)cc3O2)cc1O" , the logged Cholesterol-free media + simvastatin (0.04 μM) turned out to be 1.822

***
So for "CO[C@@H]1[C@@H](O[C@@H]2O[C@H](C)[C@@H](O[C@H]3C[C@@](C)(O)[C@@H](OC(=O)CC(C)C)[C@H](C)O3)[C@H](N(C)C)[C@H]2O)[C@@H](CC=O)C[C@@H](C)[C@@H](O)/C=C/C=C/C[C@@H](C)OC(=O)C[C@H]1OC(C)=O" , the logged Cholesterol-free media + simvastatin (0.04 μM) turned out to be 0.9194

So for "CN1CC[C@@H](NC(=O)Nc2ccc(C#N)cc2)C[C@@H]1c1nc2ccccc2[nH]1" , the logged Cholesterol-free media + simvastatin (0.04 μM) turned out to be 0.7992

So for NC(=O)c1cc[n+](CC2=C(C(=O)O)N3C(=O)[C@@H](NC(=O)[C@@H](c4ccccc4)S(=O)(=O)[O-])[C@H]3SC2)cc1 [Cefsulodin (sodium)] , the logged Cholesterol-free media + simvastatin (0.04 μM) turned out to be 1.191

So for CCOC(=O)CCC(=O)O[C@H]1[C@H](O[C@@H]2[C@@H](C)[C@H](O[C@H]3C[C@@](C)(OC)[C@@H](O)[C@H](C)O3)[C@@H](C)C(=O)O[C@H](CC)[C@@](C)(O)[C@H](O)[C@@H](C)C(=O)[C@H](C)C[C@@]2(C)O)O[C@H](C)C[C@@H]1N(C)C [Erythromycin Ethylsuccinate] , the logged Cholesterol-free media + simvastatin (0.04 μM) turned out to be 1.069
